STUDY TARGET: human Peripheral-type Benzodiazepine Receptor (PBR), TSPO (gene 706)
TEST DETAILS: NVS_MP_hPBR: NovaScreen (NVS) Membrane Protein Assay for human Peripheral-type Benzodiazepine Receptor (PBR) (AID 2283331);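 also: hits reduce radioligand binding relative to DMSO baseline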
Inconclusive results are not listed. Activity calls are given as the source filed them. The calls were made as follows: active = hit-call score of the fitted dose curve at least 0.9, where 1 is the maximum; inconclusive = response in the unintended direction; inactive = score below 0.9.
Respond with a class label; see active, inactive

As a guide, the following entries are already answered.
- COMPOUND: "COP(=S)(OC)Oc1nc(Cl)c(Cl)cc1Cl"
  CLASSIFICATION: "active"
- COMPOUND: "CNC(=O)ON=CC(C)(C)SC"
  CLASSIFICATION: "inactive"
- COMPOUND: "CCOC(=O)CC(SP(=S)(OC)OC)C(=O)OCC (stereo unspecified)"
  CLASSIFICATION: "active"
- COMPOUND: "COc1ccc(C(c2ccc(OC)cc2)C(Cl)(Cl)Cl)cc1"
  CLASSIFICATION: "inactive"
- COMPOUND: "CC1COC(Cn2cncn2)(c2ccc(Oc3ccc(Cl)cc3)cc2Cl)O1 (stereo unspecified)"
  CLASSIFICATION: "inactive"

# next compound below
Prompt: Field: outcome | Entry: C=CC1(C)OC(=O)N(c2cc(Cl)cc(Cl)c2)C1=O (stereo unspecified)
Completion: inactive

====

TEST DETAILS: ATG_PBREM_CIS: Attagene CIS-FACTORIAL HepG2 Assay for human Phenobarbital-responsive Enhancer Module (PBREM) (AID 2282955)
DETAILS: HepG2 PBREM cis-reporter, Attagene multiplexed transcription; actives raise or lower the signal
Active and inactive are the calls of the source. The calls were made as follows: active = hit-call score of the fitted dose curve at least 0.9, where 1 is the maximum; inactive = score below 0.9.
Classes to choose from: label 1 = active, label 0 = inactive

Known results for compounds:
- COMPOUND: "CCOc1cc(Oc2ccc(C(F)(F)F)cc2Cl)ccc1[N+](=O)[O-]"
  CLASSIFICATION: "label 0"
- COMPOUND: "CCc1nn(C)c(C(=O)NCc2ccc(C(C)(C)C)cc2)c1Cl"
  CLASSIFICATION: "label 1"
- COMPOUND: "COC(=O)C(C)Oc1ccc(Oc2ccc(Cl)cc2Cl)cc1 (stereo unspecified)"
  CLASSIFICATION: "label 0"
- COMPOUND: "N#Cc1cc(Br)c(O)c(Br)c1"
  CLASSIFICATION: "label 0"
- COMPOUND: "COc1nc(C)nc(NC(=O)NS(=O)(=O)c2ccccc2Cl)n1"
  CLASSIFICATION: "label 0"

Continue with the next compound.
Prompt: What classification did `COc1nc(NC(C)C)nc(NC(C)C)n1` end up with in this test?
Completion: label 0

====

TEST DETAILS: CCTE_Shafer_MEA_dev_per_burst_spike_percent: CCTE's Neural Network Formation Assay for Percent of Spikes in a Burst, Shafer Lab (AID 2284032)
Active and inactive are the calls of the source. The calls were made as follows: active = hit-call score of the fitted dose curve at least 0.9, where 1 is the maximum; inactive = score below 0.9.
Bench note: report the call from active, inactive

Solved cases (4 shown):
- CHEM SMILES: "CCNc1nc(Cl)nc(NC(C)C)n1"
  CLASSIFICATION: "inactive"
- CHEM SMILES: "CCCCNC(=O)n1c(NC(=O)OC)nc2ccccc21"
  CLASSIFICATION: "active"
- CHEM SMILES: "Cc1ccc(-c2c(Cl)nc(C#N)n2S(=O)(=O)N(C)C)cc1"
  CLASSIFICATION: "active"
- CHEM SMILES: "CNC(=O)ON=CC(C)(C)SC"
  CLASSIFICATION: "inactive"

Now for another entry.
Prompt: Given `COP(=S)(OC)Oc1nc(Cl)c(Cl)cc1Cl` , state the outcome it received in this test.
Completion: inactive

====

Read-out: HMG-CoA synthase (HMGCS2), HMGCS2 (gene 3158)
TEST DETAILS: CLD_HMGCS2_6hr: CellzDirect (CLD) Gene Expression Assay for HMG-CoA synthase (HMGCS2) at 6 hours (AID 2283682);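 also: actives raise HMGCS2 transcript above the 0.2% DMSO vehicle baseline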
Inconclusive results are not listed. Activity calls are given as the source filed them. How the source made its calls: active means hit-call score of the fitted dose curve at least 0.9, where 1 is the maximum; inconclusive means response in the unintended direction; inactive means score below 0.9.
// one of YES = active, NO = inactive, no free text

Field: example entries. Status: answers known.
- MOLECULE: "COP(N)(=O)SC (stereo not given)"
  CLASSIFICATION: "NO"
- MOLECULE: "CCOC(=O)CC(SP(=S)(OC)OC)C(=O)OCC (stereo not given)"
  CLASSIFICATION: "NO"
- MOLECULE: "COc1cnc(OC)n2nc(NS(=O)(=O)c3c(OCC(F)F)cccc3C(F)(F)F)nc12"
  CLASSIFICATION: "NO"
- MOLECULE: "C#CCOS(=O)OC1CCCCC1Oc1ccc(C(C)(C)C)cc1 (stereo not given)"
  CLASSIFICATION: "NO"
- MOLECULE: "COC(=O)c1ccccc1C(=O)OC"
  CLASSIFICATION: "NO"
- MOLECULE: "O=C(O)c1nc(Cl)ccc1Cl"
  CLASSIFICATION: "YES"
- MOLECULE: "CC(C)(C)c1ccc(CSc2cnn(C(C)(C)C)c(=O)c2Cl)cc1"
  CLASSIFICATION: "NO"
- MOLECULE: "CCOP(=S)(OCC)SCn1c(=O)oc2cc(Cl)ccc21"
  CLASSIFICATION: "NO"

Prompt: # fetch the recorded call for `CNC(=S)S` here
Completion: NO

Prompt: Answer briefly: the call reported for `CCOc1cc(Oc2ccc(C(F)(F)F)cc2Cl)ccc1[N+](=O)[O-]` in this assay.
Completion: NO

Prompt: Lab log entry: `Cc1ccc(-c2c(Cl)nc(C#N)n2S(=O)(=O)N(C)C)cc1` — outcome as called in the assay?
Completion: NO

Prompt: Name the outcome recorded for `CN(C)C(=S)SSC(=S)N(C)C` in the assay.
Completion: NO

Prompt: Please state the recorded outcome for this molecule: N#CC(CCc1ccc(Cl)cc1)(Cn1cncn1)c1ccccc1 (stereo not given)
Completion: NO

Prompt: Please indicate how the test categorized `CCCN(CCC)c1c([N+](=O)[O-])cc(S(N)(=O)=O)cc1[N+](=O)[O-]` .
Completion: NO

Prompt: Could you check what this test reported for N#Cc1nn(-c2c(Cl)cc(C(F)(F)F)cc2Cl)c(N)c1S(=O)C(F)(F)F (stereo not given) ?
Completion: NO

====

Read-out: Glutathione S-Transferase (GSTA2), GSTA2 (gene 2939)
TEST DETAILS: LTEA_HepaRG_GSTA2: Life Technologies and Expression Analysis (LTEA) Assay for Glutathione S-Transferase (GSTA2) using HepaRG (AID 2283497)
DETAILS: mRNA level, 48 h; actives raise or lower the signal
Method: LTEA_HepaRG is a cell based, multiplexed-readout assay that uses HepaRG, a human liver cell line, with measurements taken at 48 hours after chemical dosing on a 96-well plate.LTEA_HepaRG_GSTA2 is one of 102 assay component(s) measured in the LTEA HepaRG cell culture assay. It is a marker of Oxidative Stress.Data from the assay component LTEA_HepaRG_GSTA2 was analyzed into 1 endpoint. […]
Active and inactive are the calls of the source. How the source made its calls: active means hit-call score of the fitted dose curve at least 0.9, where 1 is the maximum; inactive means score below 0.9.
Returns: one label drawn from active, inactive

- COMPOUND: "Cc1c(F)c(F)c(COC(=O)C2C(/C=C(\\Cl)C(F)(F)F)C2(C)C)c(F)c1F (stereo not drawn)"
  CLASSIFICATION: "inactive"
- COMPOUND: "COC(=O)N(OC)c1ccccc1COc1ccn(-c2ccc(Cl)cc2)n1"
  CLASSIFICATION: "active"
- COMPOUND: "CS/C(C)=N/OC(=O)N(C)SN(C)C(=O)O/N=C(\\C)SC"
  CLASSIFICATION: "inactive"
- COMPOUND: "COP(=S)(OC)Oc1nc(Cl)c(Cl)cc1Cl"
  CLASSIFICATION: "inactive"
- COMPOUND: "COP(N)(=O)SC (stereo not drawn)"
  CLASSIFICATION: "inactive"
- COMPOUND: "CC1=C(C(=O)Nc2ccccc2)SCCO1"
  CLASSIFICATION: "inactive"
- COMPOUND: "CCCC1COC(Cn2cncn2)(c2ccc(Cl)cc2Cl)O1 (stereo not drawn)"
  CLASSIFICATION: "active"
- COMPOUND: "OC(c1ccc(Cl)cc1)(c1cncnc1)c1ccccc1Cl (stereo not drawn)"
  CLASSIFICATION: "active"
- COMPOUND: "CCCCNC(=O)OCC#CI"
  CLASSIFICATION: "active"
- COMPOUND: "C#CCOS(=O)OC1CCCCC1Oc1ccc(C(C)(C)C)cc1 (stereo not drawn)"
  CLASSIFICATION: "active"

Prompt: Test call for this compound, please: `CCCCNC(=O)n1c(NC(=O)OC)nc2ccccc21`
Completion: inactive

Prompt: What is the recorded call for this compound in the test? N#Cc1nn(-c2c(Cl)cc(C(F)(F)F)cc2Cl)c(N)c1S(=O)C(F)(F)F (stereo not drawn)
Completion: active

Prompt: For `CNC(=S)S` , what call appears in the results of this test?
Completion: inactive

Data credit: PubChem BioAssay (EPA / NIEHS)
